Biological target: human spermine synthase (SpmSyn) (Homo sapiens, UniProt P52788, D201A)
Construct: wild-type human SpmSyn expression construct of Wu et al. 2008; homo-dimer
Sequence (P52788 2-366 D201A): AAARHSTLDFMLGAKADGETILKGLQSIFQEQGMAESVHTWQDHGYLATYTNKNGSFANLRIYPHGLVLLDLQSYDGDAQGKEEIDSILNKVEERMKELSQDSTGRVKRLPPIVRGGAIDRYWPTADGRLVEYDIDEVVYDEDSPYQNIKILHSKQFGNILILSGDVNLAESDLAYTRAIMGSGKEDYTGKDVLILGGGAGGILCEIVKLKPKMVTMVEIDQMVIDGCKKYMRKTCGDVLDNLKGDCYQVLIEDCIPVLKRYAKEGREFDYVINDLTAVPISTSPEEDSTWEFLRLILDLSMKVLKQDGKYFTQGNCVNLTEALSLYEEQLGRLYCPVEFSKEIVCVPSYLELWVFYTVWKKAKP
Assay: intrinsic protein fluorescence titration (ex […] nm, em […]-345 nm)
pKd: −log10 of the molar value.
Measurement label: pKd

C[S+](CC[C@H](N)C(=O)O)C[C@H]1O[C@@H](n2cnc3c(N)ncnc32)[C@H](O)[C@@H]1O (stereo partly shown) [AdoMet] | 2.99

====

Biological target: human spermine synthase (SpmSyn) (Homo sapiens, UniProt P52788)
Construct: wild-type human SpmSyn expression construct of Wu et al. 2008; homo-dimer
Assay: intrinsic protein fluorescence titration (ex […] nm, em […]-345 nm)
Measurement label: Kd (µM)

C[S+](CC[C@H](N)C(=O)O)C[C@H]1O[C@@H](n2cnc3c(N)ncnc32)[C@H](O)[C@@H]1O (stereo partly shown) | 272
